system: rodent lifetime carcinogenesis bioassay, tumor incidence TD50; experiment: carcinogenic potency in animals, long-term in vivo studies, CPDB compilation (AID 1745844); conditions: rat; strain Charles River CD (Sprague-Dawley); males; in feed; site: skin; lesion: several types; types named in the paper; dosed 47 weeks; study length 51 weeks
metric: TD50

TD50 reported for this compound COc1ccc(OC)c(/C=C/c2ccc(N)cc2)c1 : 1.48 mg/kg/day

###

system: rodent lifetime carcinogenesis bioassay, tumor incidence TD50; experiment: carcinogenic potency in animals, long-term in vivo studies, CPDB compilation (AID 1745844); conditions: rat; strain F344/DuCrj; males; in feed; site: Zymbal's gland; lesion: squamous-cell carcinoma; dosed 55 weeks; study length 55 weeks
metric: TD50

TD50 reported for this compound Cn1c(N)nc2c3cccnc3ccc21 : 0.999 mg/kg/day

###

test system: rodent lifetime carcinogenesis bioassay, tumor incidence TD50; experiment: carcinogenic potency in animals, long-term in vivo studies, CPDB compilation (AID 1745844); details: rat; strain Fischer 344; males; by gavage; site: any site (literature study); lesion: several types; types named in the paper; dosed 103 weeks; study length 104 weeks
Active and inactive are the calls of the source. The rule behind the calls is not given here.
metric: TD50

S=[Se]
25 mg/kg/day

Dear reader, for each entry below, please note its TD50.
1. CCCN(CCC)S(=O)(=O)c1ccc(C(=O)O)cc1
2. O=C1CCc2ccccc2O1
3. Cc1cccc(C)c1
4. [N-]=[N+]=[N-]
5. S=c1[nH]c2ccccc2s1

Reply |
296 mg/kg/day
143 mg/kg/day
700 mg/kg/day (inactive)
8.26 mg/kg/day
136 mg/kg/day

###

system: rodent lifetime carcinogenesis bioassay, tumor incidence TD50; assay: carcinogenic potency in animals, long-term in vivo studies, CPDB compilation (AID 1745844); conditions: mouse; strain CF-1; females; in feed; site: liver; lesion: liver-cell tumor, type B; dosed 90 weeks; study length 90 weeks
metric: TD50 (mg/kg/day)
Answers are plain numbers, in mg/kg/day.

TD50 reported for this compound ClC1=C(Cl)[C@]2(Cl)[C@@H]3[C@@H]4C[C@@H]([C@H]5O[C@@H]45)[C@@H]3[C@@]1(Cl)C2(Cl)Cl : 2.59

###

test system: rodent lifetime carcinogenesis bioassay, tumor incidence TD50; assay: carcinogenic potency in animals, long-term in vivo studies, CPDB compilation (AID 1745844); conditions: rat; strain Fischer 344; females; in drinking water; site: nasal cavity; lesion: several types; types named in the paper; dosed 50 weeks; study length 55 weeks
metric: TD50

TD50 reported for this compound C=CCN(CC(O)CO)N=O (stereo unspecified) : 0.972 mg/kg/day

###

tested on: rodent lifetime carcinogenesis bioassay, tumor incidence TD50; assay: carcinogenic potency in animals, long-term in vivo studies, CPDB compilation (AID 1745844); conditions: mouse; strain B6C3F1; males; inhaled; site: all sites + forestomach + Harderian gland + heart + kidney + liver + lung + preputial gland; lesion: histiocytic sarcoma + malignant lymphoma, mixed type + malignant lymphoma, lymphocytic type + malignant lymphoma + squamous-cell; dosed 40 weeks; study length 104 weeks
metric: TD50
Respond with a number, then the unit of measure.

TD50 reported for this compound C=CC=C : 10.9 mg/kg/day

###

test system: rodent lifetime carcinogenesis bioassay, tumor incidence TD50; experiment: carcinogenic potency in animals, long-term in vivo studies, CPDB compilation (AID 1745844); settings: mouse; strain B6C3F1; males; by gavage; site: thyroid gland; lesion: follicular-cell carcinoma; dosed 103 weeks; study length 104 weeks
metric: TD50 (mg/kg/day)
Give bare numbers, in mg/kg/day.

TD50 reported for this compound CCCC(Cl)CCCC(Cl)CCC(Cl)CCC(Cl)CCC(Cl)CCCC(Cl)CCC (stereo unspecified) : 44000
